# IC90 annotations
- Test system: M. tuberculosis H37Rv growth inhibition, 7H9 media
- Protocol Description: M. tuberculosis growth inhibition, HTS (AID 449762);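 further: bacterial growth assessed after seven days of incubation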
- Test Settings: measured here: IC90 growth inhibition
Results filed as inconclusive are left out.

{"Compound": "Nc1cc([N+](=O)[O-])cc2oc(-c3ccccc3)cc12", "Target Of Assay": "M. tuberculosis H37Rv growth inhibition, 7H9 media", "Reading Qualifier": ">", "IC90 / µM": 100}
{"Compound": "C=CCOC(=O)COc1ccc2c(C)c(CC)c(=O)oc2c1", "Target Of Assay": "M. tuberculosis H37Rv growth inhibition, 7H9 media", "Reading Qualifier": "=", "IC90 / µM": 2.21}
{"Compound": "COc1cccc2sc(Nc3nnc(-c4cccs4)o3)nc12", "Target Of Assay": "M. tuberculosis H37Rv growth inhibition, 7H9 media", "Reading Qualifier": "=", "IC90 / µM": 27.1}
{"Compound": "C=CCOc1ccc(/C=C/C(=O)OCC(=O)NCC2CCCO2)cc1 (stereo unspecified)", "Target Of Assay": "M. tuberculosis H37Rv growth inhibition, 7H9 media", "Reading Qualifier": ">", "IC90 / µM": 100}
{"Compound": "O=c1oc(-c2cccs2)nc2c1cnn2-c1ccccc1", "Target Of Assay": "M. tuberculosis H37Rv growth inhibition, 7H9 media", "Reading Qualifier": ">", "IC90 / µM": 100}
{"Compound": "CN(C)CCCN1c2ccccc2Sc2ccc(Cl)cc21", "Target Of Assay": "M. tuberculosis H37Rv growth inhibition, 7H9 media", "Reading Qualifier": "=", "IC90 / µM": 59}
{"Compound": "O=C(NCCN1CCN(c2cccc(Cl)c2)CC1)c1ccc(CSc2nc3ccncc3[nH]2)cc1", "Target Of Assay": "M. tuberculosis H37Rv growth inhibition, 7H9 media", "Reading Qualifier": "=", "IC90 / µM": 35.3}
{"Compound": "CS(=O)(=O)c1ncc(Cl)c(C(=O)Nc2ccc(OC(F)F)cc2)n1", "Target Of Assay": "M. tuberculosis H37Rv growth inhibition, 7H9 media", "Reading Qualifier": "=", "IC90 / µM": 15.5}
{"Compound": "CCc1ccc(NC(=O)CSc2nc3n[nH]c(C)c3c(=N)n2-c2cccc(OC)c2)cc1", "Target Of Assay": "M. tuberculosis H37Rv growth inhibition, 7H9 media", "Reading Qualifier": "=", "IC90 / µM": 37.1}
{"Compound": "Cc1cccc(C(=O)OCC(=O)N2CCc3ccccc3C2)c1O", "Target Of Assay": "M. tuberculosis H37Rv growth inhibition, 7H9 media", "Reading Qualifier": ">", "IC90 / µM": 100}
{"Compound": "CCCCCNc1nc(N2CCCC2)c2c(c1C#N)CCN(C)C2", "Target Of Assay": "M. tuberculosis H37Rv growth inhibition, 7H9 media", "Reading Qualifier": ">", "IC90 / µM": 100}

Where do these numbers come from? They come from PubChem BioAssay AID449762.
